test system: Nocardia brasiliensis IFM 0089; assay: Susceptibility to antibiotics of the producing strain; assay type: cell-based

smiles: C[C@@H](O)[C@H]1C(=O)N2C(C(=O)O)=C(SCCN=CN)C[C@H]12
Susceptibility to antibiotics: negative
--
smiles: NC[C@H]1O[C@H](O[C@H]2[C@H](O)[C@@H](O[C@H]3O[C@H](CO)[C@@H](O)[C@H](N)[C@H]3O)[C@H](N)C[C@@H]2N)[C@H](O)[C@@H](O)[C@@H]1O
Susceptibility to antibiotics: negative
--
smiles: O=c1[nH]cc(F)c(=O)[nH]1
Susceptibility to antibiotics: negative
